- System: OVCAR-4 ovarian
- PROTOCOL_NOTES: NCI tumour cell line growth inhibition, 48 h
ENDPOINT: TGI (µM)
Please state the figure in µM; there is no need to write the unit.

INPUT: // TGI lookup, key: `Oc1[nH]c2ccccc2c1N=NC(=S)N1CCCCCC1`
OUTPUT: 3.91

INPUT: // TGI lookup, key: `Cc1sc2nc(-c3ccccn3)c(/C=N/N=C(N)N)n2c1C`
OUTPUT: 13.3

INPUT: // TGI lookup, key: `Cc1nnc(N)nc1/C=C\c1cccs1`
OUTPUT: 74.2

INPUT: // TGI lookup, key: `CSC(=S)N(C)NC(=O)c1cccc(C(=O)NN(C)C(=S)SC)n1`
OUTPUT: 41

INPUT: // TGI lookup, key: `CC1(C)Oc2ccc(Cl)cc2C12CC2`
OUTPUT: 29.6

INPUT: // TGI lookup, key: `O=C(Cc1ccccc1)Nc1nnc(CCSCCc2nnc(NC(=O)Cc3ccccc3)s2)s1`
OUTPUT: 32.7

INPUT: // TGI lookup, key: COCC(=O)[C@]1(O)Cc2c(O)c3c(c(O)c2[C@@H](OC2CC(N)C(O)C(C)O2)C1)C(=O)c1c(OC)cccc1C3=O (some centres not stated)
OUTPUT: 1.56

INPUT: // TGI lookup, key: `O=C1NC(=O)c2c1c1c3ccccc3ccc1c1[nH]c3ccc(Br)cc3c21`
OUTPUT: 4.85

INPUT: // TGI lookup, key: C=CCC1NCCC2=C1C(S(=O)(=O)c1ccc(C)cc1)c1ccccc12 (configuration not stated)
OUTPUT: 25.7

---

Assign TGI to each entry below.
- Test system: MCF7 breast
- PROTOCOL_NOTES: NCI tumour cell line growth inhibition, 48 h

INPUT: // TGI lookup, key: `NC(=O)Nc1ccc2ncnc(Nc3ccc(Cl)cc3)c2c1`
OUTPUT: > 100 µM

INPUT: // TGI lookup, key: `O=C(Cc1ccccc1)Nc1nnc(CCSCCc2nnc(NC(=O)Cc3ccccc3)s2)s1`
OUTPUT: > 100 µM

INPUT: // TGI lookup, key: `COC(=O)Nc1nc2c(OC)c(OC)c(OC)cc2[nH]1`
OUTPUT: > 100 µM

INPUT: // TGI lookup, key: `O=C(O)c1cn(C2CC2)c2cc(N3CCN(S(=O)(=O)c4ccc(Cl)c(Cl)c4)CC3)c(F)cc2c1=O`
OUTPUT: > 100 µM

INPUT: // TGI lookup, key: c1ccc(C(CCN2CCCC2)c2ccccn2)cc1 (stereo not given)
OUTPUT: > 100 µM

INPUT: // TGI lookup, key: CC12C=CC(C)(O1)C1C2c2ccccc2S1(=O)=O (stereo not given)
OUTPUT: > 100 µM

INPUT: // TGI lookup, key: `O=c1c2c([nH]c3cc4c(cc13)OCO4)-c1ccccc1CCC2`
OUTPUT: > 50 µM

INPUT: // TGI lookup, key: CCCCCCC(CCl)c1sc(-c2csc(CCNC(=O)OC(C)(C)C)n2)nc1C(=O)OC (stereo not given)
OUTPUT: 29.5 µM

INPUT: // TGI lookup, key: O=C1OCC2=C1C(c1cccc(F)c1)c1cc3c(cc1N2CCO)OCCO3 (stereo not given)
OUTPUT: > 50 µM

INPUT: // TGI lookup, key: `COc1ccc(N2CCN(CC(=O)N3CCN(c4nnc(-c5ccccc5)c(-c5ccccc5)n4)CC3)CC2)cc1`
OUTPUT: 34.2 µM

---

Assign TGI to each entry below.
- Tested on: SK-OV-3 ovarian
- PROTOCOL_NOTES: NCI tumour cell line growth inhibition, 48 h

INPUT: Hi! What's the reported TGI for CCOC(=O)/C=C(/C(=O)OCC)n1c(=O)c(C)cn(C2CC(N=[N+]=[N-])C(CO)O2)c1=O (centres undefined) on SK-OV-3 ovarian?
OUTPUT: > 100 µM

INPUT: Hi! What's the reported TGI for `O=C1C[C@@H](c2ccccc2)NCCCCN(O)CCCN1` on SK-OV-3 ovarian?
OUTPUT: > 100 µM

INPUT: Hi! What's the reported TGI for `CCOC(=O)Nc1nc2c(F)c(F)c(F)cc2s1` on SK-OV-3 ovarian?
OUTPUT: > 100 µM

INPUT: Hi! What's the reported TGI for CC(=O)c1ccc(NC(=O)/C(=N\NC(N)=O)C(C#N)CC(C)(C)C=O)cc1 (centres undefined) on SK-OV-3 ovarian?
OUTPUT: > 100 µM

INPUT: Hi! What's the reported TGI for `C[C@]12CCC(=O)C=C1CC[C@@H]1[C@@H]2C(=O)C[C@@]2(C)[C@H]1CC[C@]2(O)C(=O)CO` on SK-OV-3 ovarian?
OUTPUT: > 100 µM

INPUT: Hi! What's the reported TGI for Clc1ccc(OCC2NC3C=CC32)cn1 (centres undefined) on SK-OV-3 ovarian?
OUTPUT: > 100 µM

INPUT: Hi! What's the reported TGI for `O=[N+]([O-])c1cccc2nc3ccccc3c(NCCC[N+]3([O-])CCCCC3)c12` on SK-OV-3 ovarian?
OUTPUT: 4.58 µM

INPUT: Hi! What's the reported TGI for C[C@H](CC[C@@H](O)C(C)(C)O)[C@H]1CC[C@@]2(C)[C@@H]3CC=C4[C@@H](CC[C@H](OC5OC(CO)C(O)C(O)C5O)C4(C)C)[C@]3(C)C(=O)C[C@]12C (some centres undefined) on SK-OV-3 ovarian?
OUTPUT: > 100 µM

INPUT: Hi! What's the reported TGI for O=C1C2Cc3ccccc3CN2C(=O)N1CN1CCN(CN2C(=O)C3Cc4ccccc4CN3C2=O)CC1 (centres undefined) on SK-OV-3 ovarian?
OUTPUT: > 100 µM

INPUT: Hi! What's the reported TGI for `CCC[CH2][Sn]1([CH2]CCC)[O]C(=O)C[S]1` on SK-OV-3 ovarian?
OUTPUT: 14 µM

INPUT: Hi! What's the reported TGI for C=CCC1NCCC2=C1C(S(=O)(=O)c1ccc(C)cc1)c1ccccc12 (centres undefined) on SK-OV-3 ovarian?
OUTPUT: 33.2 µM

INPUT: Hi! What's the reported TGI for `COc1cc2c(cc1OCCCCC(=O)Nc1ccc(-c3nc4ccccc4s3)cc1)N=C[C@@H]1CCCN1C2=O` on SK-OV-3 ovarian?
OUTPUT: 14.5 µM

INPUT: Hi! What's the reported TGI for `c1ccc(-c2n(Cc3ccc4ccccc4n3)c3ccccc3[n+]2Cc2ccc3ccccc3n2)cc1` on SK-OV-3 ovarian?
OUTPUT: 1.18 µM

INPUT: Hi! What's the reported TGI for Cc1ccc([N+](=O)[O-])cc1S(=O)(=O)Nc1ccc(C2=NN(c3ccc([N+](=O)[O-])cc3[N+](=O)[O-])C(c3ccccc3O)C2)cc1 (centres undefined) on SK-OV-3 ovarian?
OUTPUT: > 100 µM

INPUT: Hi! What's the reported TGI for COC(=O)C1CC2(c3ccc(C)cc3)C(c3ccc(C)cc3)=C(c3ccc(C)cc3)C1(c1ccc(C)cc1)S2=O (centres undefined) on SK-OV-3 ovarian?
OUTPUT: > 100 µM

INPUT: Hi! What's the reported TGI for O=C1C=CC2(O[C@@H](Cc3ccccc3)[C@H](Cc3ccccc3)O2)C(SC(=O)c2ccccc2)C1 (some centres undefined) on SK-OV-3 ovarian?
OUTPUT: 8.04 µM

INPUT: Hi! What's the reported TGI for `Cc1nc2ccccc2c(=O)n1NC(=O)Cc1ccccc1` on SK-OV-3 ovarian?
OUTPUT: > 100 µM

INPUT: Hi! What's the reported TGI for `CC(=O)O[C@H]1CC[C@@]2(C)C(=CC[C@@H]3[C@@H]2CC[C@]2(C)c4nc(N)c(C#N)cc4C[C@@H]32)C1` on SK-OV-3 ovarian?
OUTPUT: > 83.8 µM

INPUT: Hi! What's the reported TGI for `C(=C1\CCC/C(=C/c2ccccc2)C1=NNc1ccccc1)/c1ccccc1` on SK-OV-3 ovarian?
OUTPUT: > 100 µM

INPUT: Hi! What's the reported TGI for `N=C(N)n1[nH]c2c(c1=O)CCC2` on SK-OV-3 ovarian?
OUTPUT: > 100 µM

INPUT: Hi! What's the reported TGI for `O=C1CCC2=C(CCC2)N1CCc1ccc2c(c1)OCO2` on SK-OV-3 ovarian?
OUTPUT: > 100 µM

INPUT: Hi! What's the reported TGI for `CSc1nc(Cl)c(Br)c(Nc2c[nH]c(=O)[nH]c2=O)n1` on SK-OV-3 ovarian?
OUTPUT: 42.7 µM

INPUT: Hi! What's the reported TGI for `Cn1c2ccccc2c2cc(-c3ccccc3)c3c(c21)C(=O)C=CC3=O` on SK-OV-3 ovarian?
OUTPUT: > 100 µM

INPUT: Hi! What's the reported TGI for `Cc1ccccc1NC(=S)N=Nc1c(O)[nH]c2ccccc12` on SK-OV-3 ovarian?
OUTPUT: > 100 µM

INPUT: Hi! What's the reported TGI for O=S(=O)(NC(=S)Nc1ccccc1)c1ccc(N2N=C3c4ccccc4CC3C2c2ccc(Cl)cc2)cc1 (centres undefined) on SK-OV-3 ovarian?
OUTPUT: > 100 µM

INPUT: Hi! What's the reported TGI for O=C1Nc2ccccc2NC1C1OC(c2ccccc2)=CC1=O (centres undefined) on SK-OV-3 ovarian?
OUTPUT: > 100 µM

INPUT: Hi! What's the reported TGI for `N=C1N=C(N)c2cc3c(cc21)SCCSCCCSCCS3` on SK-OV-3 ovarian?
OUTPUT: 41.1 µM

INPUT: Hi! What's the reported TGI for `Cc1ccnc(NC(=S)Nc2ccccc2Cl)c1` on SK-OV-3 ovarian?
OUTPUT: > 100 µM

INPUT: Hi! What's the reported TGI for `Cn1cc(-c2csc(-c3cn(CCN4CCOCC4)c4ccc(F)cc34)n2)c2cccnc21` on SK-OV-3 ovarian?
OUTPUT: 51.6 µM

INPUT: Hi! What's the reported TGI for COC(=O)C1=C(OC(=O)/C(=C/c2ccc(Cl)cc2)c2ccccc2)C(C(=O)OC)[C@@]2(O)[C@@H](C(=O)OC)[C@H](C)C[C@@H]1[C@@H]2C(=O)OC (some centres undefined) on SK-OV-3 ovarian?
OUTPUT: > 100 µM

INPUT: Hi! What's the reported TGI for `Cc1cc(-c2ccccc2)c(C)n1Cc1ccc(Cl)cc1` on SK-OV-3 ovarian?
OUTPUT: > 100 µM

INPUT: Hi! What's the reported TGI for `COc1cc(Nc2ncc3c(n2)-c2ccc(Cl)cc2C(c2c(F)cccc2OC)=NC3)ccc1C(=O)O` on SK-OV-3 ovarian?
OUTPUT: 44 µM

INPUT: Hi! What's the reported TGI for Cn1cc2ccccc2c1-c1nc(F)nc(Oc2ccc3c(c2)CC[C@@H]2C3CC[C@]3(C)C(O)CCC23)n1 (some centres undefined) on SK-OV-3 ovarian?
OUTPUT: 36.3 µM

INPUT: Hi! What's the reported TGI for `Cc1cc(C)cc(Nc2nccc(-c3c(-c4ccc(F)cc4)ncn3C3CCNCC3)n2)c1` on SK-OV-3 ovarian?
OUTPUT: 5.09 µM

INPUT: Hi! What's the reported TGI for `O=C(N/C(=C\c1ccc([N+](=O)[O-])cc1)c1nc2[nH]c(=S)[nH]c(=O)c2[nH]1)c1ccccc1` on SK-OV-3 ovarian?
OUTPUT: > 100 µM

INPUT: Hi! What's the reported TGI for `Cc1cc(S(=O)(=O)O)ccc1N=Nc1ccc(N=Nc2c(O)ccc3ccccc23)c(C)c1` on SK-OV-3 ovarian?
OUTPUT: > 100 µM

INPUT: Hi! What's the reported TGI for `c1ccc(Cn2cc3c(c2)-c2oncc2CC3)cc1` on SK-OV-3 ovarian?
OUTPUT: 26.5 µM

INPUT: Hi! What's the reported TGI for `CN(C)CCCNC(=O)c1cc2c3ccccc3[nH]c2c2ncccc12` on SK-OV-3 ovarian?
OUTPUT: > 100 µM

INPUT: Hi! What's the reported TGI for N#CSCC1COc2ccccc2O1 (centres undefined) on SK-OV-3 ovarian?
OUTPUT: > 10 µM
